Assay: amyloid nucleation score (Sup35N fusion, yeast selection) (log enrichment); library NNK2; higher = more nucleation; inactive = no reads after selection;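 note: zero at mode of non-aggregating sequences after 7 days selection at 30°C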
Measurement type: amyloid nucleation score
Output: the number by itself.

Example substances with recorded amyloid nucleation score:
{"Substance": "CNERFERLFISVTGFVMRRH", "amyloid nucleation score": -0.358}
{"Substance": "ISWVLRCQSKSRWLIQ", "amyloid nucleation score": 0.627}
{"Substance": "RLVRVGYLGRKTQRRSCQKL", "amyloid nucleation score": 0.686}
{"Substance": "TLYQCEEDMSGYDNVNDLAY", "amyloid nucleation score": -0.331}
{"Substance": "LIRVYRKVGLVTLLHGMNRM", "amyloid nucleation score": 0.039}

Exam item: Field request: amyloid nucleation score | item: TTTAERSVRPVSCDGFIACG
Marked response: 3.56

Exam item: Same lookup for LLTNAVRGLG , please.
Marked response: 0.302

Exam item: Another substance: ITMSQNSWNFRHDGTLVGLK
Marked response: 0.377

Exam item: Next up: NLHVHL
Marked response: 3.64

Exam item: Input IHCRCVADCSRS
Marked response: -0.097

Exam item: LSVSHMCEADLQYRTLFLSK , same question.
Marked response: -0.606

Exam item: Quick one: IVLQSGR
Marked response: -1.12

Exam item: Okay, and SGLLSFLTHSLFEFLSNKQW ?
Marked response: -0.557

Exam item: Let us now turn to STCVGEYLHCSLSCAGMVLL
Marked response: 6.59

Exam item: Cool, now RGERVSPNNGTS
Marked response: 0.87

Exam item: What do you have for CYLMKSFMNLSDRNVFGNVT ?
Marked response: -0.295

Exam item: Now this one: VMRIVMIDMKSESWSTERVS
Marked response: 0.611
